system: Leishmania donovani; experiment: Antitrypanosomal activity against amastigotes of Leishmania donovani MHOM/ET/67/L82 after 72 hrs by inverted microscope analysis; type: functional, organism-based; settings: MHOM/ET/67/L82, 72 h
property: pIC50
pIC50 field: float, defined as -log10 of concentration (mol/L).

Sample records with pIC50:
- compoundString: "COc1ccc(OC2=CC(=O)c3c(OC)cccc3C2=O)cc1"
  pIC50: 5.51
- compoundString: "O=C1C=C(Oc2ccc(F)cc2)C(=O)c2c(O)cccc21"
  pIC50: 5.88
- compoundString: "COc1cccc2c1C(=O)C(Oc1ccc(C)cc1)=CC2=O"
  pIC50: 4.96
- compoundString: "O=C1C(Oc2ccccc2)=CC(=O)c2c(O)cccc21"
  pIC50: 5.08
- compoundString: "COc1cccc2c1C(=O)C(Oc1ccc(F)cc1)=CC2=O"
  pIC50: 5.22

Now consider the entry below.
Per the records, this compound ( Cc1ccc(OC2=CC(=O)c3cccc(O)c3C2=O)cc1 ) has pIC50 equal to 5.52

Reference source: ChEMBL document CHEMBL3603776
